Target: CGRP receptor (SK-N-MC membrane) (Homo sapiens, UniProt O60894+Q16602)
Construct: Purified SK-N-MC membrane was purchased from Perkin Elmer
Sequence (Q16602 23-461): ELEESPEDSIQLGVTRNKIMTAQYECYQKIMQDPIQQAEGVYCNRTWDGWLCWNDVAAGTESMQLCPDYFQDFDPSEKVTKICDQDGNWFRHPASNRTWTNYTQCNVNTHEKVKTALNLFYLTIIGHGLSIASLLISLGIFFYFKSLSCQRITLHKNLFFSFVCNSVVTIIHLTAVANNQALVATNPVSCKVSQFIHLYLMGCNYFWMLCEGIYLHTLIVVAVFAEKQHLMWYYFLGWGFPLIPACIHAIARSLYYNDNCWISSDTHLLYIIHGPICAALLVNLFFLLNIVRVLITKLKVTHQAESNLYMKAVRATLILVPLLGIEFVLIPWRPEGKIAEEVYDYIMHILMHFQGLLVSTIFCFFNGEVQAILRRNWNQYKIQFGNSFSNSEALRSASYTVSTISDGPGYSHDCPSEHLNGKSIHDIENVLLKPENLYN
Sequence (O60894 27-148): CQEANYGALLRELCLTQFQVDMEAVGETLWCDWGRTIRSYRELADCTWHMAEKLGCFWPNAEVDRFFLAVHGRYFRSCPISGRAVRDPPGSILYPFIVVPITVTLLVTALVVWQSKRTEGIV
Assay: I125-CGRP binding displacement assay on purified SK-N-MC membrane
pKi: −log10 of the molar value.
readout: pKi

// known answers, use as guide
- compound: "Cc1cc(C2SC(CC(=O)N3CCC(N4Cc5ccccc5NC4=O)CC3)C(=O)N2CCC(C)C)cc2cn[nH]c12 (stereo not shown) [Compound 282]"
  readout: "pKi"
  result: "> 6.00"
- compound: "CC(C)(C)CCN1C(=O)C(CC(=O)N2CCC(N3CCc4ccccc4NC3=O)CC2)SC1c1ccccc1N1CCC(O)CC1 (stereo not shown) [Compound 150]"
  readout: "pKi"
  result: "> 6.00"
- compound: "CC(C)(C)N1CCN(c2c(F)cccc2C2S[C@@H](CC(=O)N3CCC(N4CCc5ccccc5NC4=O)CC3)C(=O)N2CC2CCCCC2)CC1 (stereo partly shown) [Compound 515]"
  readout: "pKi"
  result: "> 6.00"

Param readout = pKi; param system = CGRP receptor (SK-N-MC membrane) (Homo sapiens, UniProt O60894+Q16602); param query = CC(C)(C)CCN1C(=O)[C@H](CC(=O)N2CCC(N3CCc4ccccc4NC3=O)CC2)SC1c1cnc(C2CCNCC2)s1 (stereo partly shown) [Compound 497] ; response: value > 6.00

Param readout = pKi; param system = CGRP receptor (SK-N-MC membrane) (Homo sapiens, UniProt O60894+Q16602); param query = CC(C)CN1C(=O)[C@H](CC(=O)N2CCC(n3c(=O)[nH]c4ncccc43)CC2)S[C@@H]1c1cccc(F)c1N1CCN(C(C)(C)C)CC1 [Compound 495] ; response: value > 6.00

Param readout = pKi; param system = CGRP receptor (SK-N-MC membrane) (Homo sapiens, UniProt O60894+Q16602); param query = CC(C)(C)CCN1C(=O)C(CC(=O)N2CCC(N3CCc4ccccc4NC3=O)CC2)SC1c1ccc(F)cc1F (stereo not shown) [Compound 54] ; response: value > 6.00

Param readout = pKi; param system = CGRP receptor (SK-N-MC membrane) (Homo sapiens, UniProt O60894+Q16602); param query = CC(C)CCN1C(=O)C(CC(=O)N2CCC(n3cc(-c4ccccc4)[nH]c3=O)CC2)SC1c1ccc(F)c(F)c1 (stereo not shown) [Compound 127] ; response: value < 5.30

Param readout = pKi; param system = CGRP receptor (SK-N-MC membrane) (Homo sapiens, UniProt O60894+Q16602); param query = CN1CCN(c2cc(F)ccc2C2SC(CC(=O)N3CCC(n4cc(-c5ccccc5)[nH]c4=O)CC3)C(=O)N2CCC(C)(C)C)CC1 (stereo not shown) [Compound 363] ; response: value > 6.00

Param readout = pKi; param system = CGRP receptor (SK-N-MC membrane) (Homo sapiens, UniProt O60894+Q16602); param query = CC(C)(C)CCN1C(=O)C(CC(=O)N2CCC(N3CCc4ccccc4NC3=O)CC2)SC1c1cccc(F)c1N1CCN(C2CC2)CC1 (stereo not shown) [Compound 389] ; response: value > 6.00

Param readout = pKi; param system = CGRP receptor (SK-N-MC membrane) (Homo sapiens, UniProt O60894+Q16602); param query = CC(C)(C)CCN1C(=O)[C@H](CC(=O)N2CCC(n3c(=O)[nH]c4ncccc43)CC2)SC1c1cccc(F)c1N1CCN(C(C)(C)C)CC1 (stereo partly shown) [Compound 437] ; response: value > 6.00

Param readout = pKi; param system = CGRP receptor (SK-N-MC membrane) (Homo sapiens, UniProt O60894+Q16602); param query = CN(C)c1ccccc1C1SC(CC(=O)N2CCC(N3Cc4ccccc4NC3=O)CC2)C(=O)N1CCC(C)(C)C (stereo not shown) [Compound 211] ; response: value > 6.00

Param readout = pKi; param system = CGRP receptor (SK-N-MC membrane) (Homo sapiens, UniProt O60894+Q16602); param query = CN(C)C1CCN(c2c(F)cccc2[C@@H]2S[C@@H](CC(=O)N3CCC(n4c(=O)[nH]c5ncccc54)CC3)C(=O)N2CCC(C)(C)C)C1 (stereo partly shown) [Compound 456] ; response: value > 6.00

Param readout = pKi; param system = CGRP receptor (SK-N-MC membrane) (Homo sapiens, UniProt O60894+Q16602); param query = CC(C)(C)CCN1C(=O)C(CC(=O)N2CCC(N3CCc4ccccc4NC3=O)CC2)SC1c1ccccc1C1=CCNCC1 (stereo not shown) [Compound 414] ; response: value < 5.30

FYI, the data here is from patent US8163737B2.
